Where do these numbers come from? They come from patent US20250230188A1.

The following compounds each carry a recorded MIC for E. coli-BL21 (pET28c-AlbD).

*Q* Sample CO[C@@H](C(N)=O)[C@H](NC(=O)c1ccc(NC(=O)[C@@H](N)Cc2ccc(O)cc2)cc1)C(=O)Nc1ccc(C(=O)Nc2ccc(C(=O)Nc3ccc(C(=O)O)c(O)c3OC(C)C)c(O)c2OC(C)C)cc1 [PABA70] — what was its MIC?
*A* > 64 mg/L

*Q* Also, CO[C@@H](C(N)=O)[C@H](NC(=O)c1ccc(NC(=O)[C@@H](N)Cc2ccccc2)cc1)C(=O)Nc1ccc(C(=O)Nc2ccc(C(=O)Nc3ccc(C(=O)O)c(O)c3OC(C)C)c(O)c2OC(C)C)cc1 [PABA48] please.
*A* > 8 mg/L

*Q* Also, CO[C@@H](C(N)=O)[C@H](NC(=O)c1ccc(NC(=O)[C@@H](N)Cc2ccc(O)cc2)cc1)C(=O)Nc1ccc(C(=O)Nc2ccc(C(=O)Nc3ccc(C(=O)O)cc3)c(O)c2OC(C)C)cc1 [PABA57] please.
*A* > 64 mg/L

---

Exercise: for every item that follows, state its recorded MIC.
System: P. aeruginosa
Assay info: Syn-BNP MIC against ESKAPE pathogens: P. aeruginosa
Format: cell-based, Pseudomonas aeruginosa
Run parameters: Gram-negative

*Q* Sample CO[C@@H](C(N)=O)[C@H](NC(=O)c1ccc(NC(=O)[C@@H](N)Cc2ccccc2)cc1)C(=O)Nc1ccc(C(=O)Nc2ccc(C(=O)Nc3ccc(C(=O)O)c(O)c3OC(C)C)c(O)c2OC(C)C)cc1 — what was its MIC?
*A* >8 µg/mL

*Q* Also, CO[C@@H](C(N)=O)[C@H](NC(=O)c1ccc(NC(=O)[C@@H](N)Cc2ccc(O)cc2)cc1)C(=O)Nc1ccc(C(=O)Nc2ccc(C(=O)Nc3ccc(C(=O)O)cc3)c(O)c2OC(C)C)cc1 please.
*A* >8 µg/mL

*Q* Also, CO[C@@H](C(N)=O)[C@H](NC(=O)c1ccc(NC(=O)[C@@H](N)Cc2ccc(O)cc2)cc1)C(=O)Nc1ccc(C(=O)Nc2ccc(C(=O)Nc3ccc(C(=O)O)c(O)c3OC(C)C)c(O)c2OC(C)C)cc1 please.
*A* >8 µg/mL
